src = patent US4122034A

The following are reported MIC results, target or system Aspergillus sp. No. 3.
Numbers only, in µg/mL.

Example cases with answers are listed next.
# compound, system-under-test, MIC (µg/mL)
records = [
    ("NCc1[nH]c2ccc(Cl)cc2c1-c1ccccc1 [C]", "Aspergillus sp. No. 3", 17.5),
    ("NCc1[nH]c2ccc(Cl)cc2c1-c1ccccc1F [A]", "Aspergillus sp. No. 3", 17.5),
    ("NCc1[nH]c2cc(Br)c(Cl)cc2c1-c1ccccc1 [D]", "Aspergillus sp. No. 3", 17.5),
    ("NCc1[nH]c2ccc(Cl)cc2c1-c1ccc(Cl)cc1Cl [E]", "Aspergillus sp. No. 3", 17.5),
]

Pending compound:
Req: Checklist item: MIC tested on Aspergillus sp. No. 3, entry NCc1[nH]c2ccc(Cl)cc2c1-c1c(F)cccc1F [B] , value?
Resp: 37.5
